target: HDAC6 enzyme (Homo sapiens, UniProt Q9UBN7); construct: transducing full length HDAC6 gene into Sf-9 insect cells; GST; purchased SignalChem; host or cells: Sf-9 insect cells; experiment: HDAC6 enzyme inhibitory activity (HDAC-Glo I/II Assay kit); format: biochemical; settings: 10 μM; wells without enzyme = 100% inhibition; read-out: HDAC6 inhibitory rate (%) (10 μM)
Sequence (Q9UBN7 whole entry): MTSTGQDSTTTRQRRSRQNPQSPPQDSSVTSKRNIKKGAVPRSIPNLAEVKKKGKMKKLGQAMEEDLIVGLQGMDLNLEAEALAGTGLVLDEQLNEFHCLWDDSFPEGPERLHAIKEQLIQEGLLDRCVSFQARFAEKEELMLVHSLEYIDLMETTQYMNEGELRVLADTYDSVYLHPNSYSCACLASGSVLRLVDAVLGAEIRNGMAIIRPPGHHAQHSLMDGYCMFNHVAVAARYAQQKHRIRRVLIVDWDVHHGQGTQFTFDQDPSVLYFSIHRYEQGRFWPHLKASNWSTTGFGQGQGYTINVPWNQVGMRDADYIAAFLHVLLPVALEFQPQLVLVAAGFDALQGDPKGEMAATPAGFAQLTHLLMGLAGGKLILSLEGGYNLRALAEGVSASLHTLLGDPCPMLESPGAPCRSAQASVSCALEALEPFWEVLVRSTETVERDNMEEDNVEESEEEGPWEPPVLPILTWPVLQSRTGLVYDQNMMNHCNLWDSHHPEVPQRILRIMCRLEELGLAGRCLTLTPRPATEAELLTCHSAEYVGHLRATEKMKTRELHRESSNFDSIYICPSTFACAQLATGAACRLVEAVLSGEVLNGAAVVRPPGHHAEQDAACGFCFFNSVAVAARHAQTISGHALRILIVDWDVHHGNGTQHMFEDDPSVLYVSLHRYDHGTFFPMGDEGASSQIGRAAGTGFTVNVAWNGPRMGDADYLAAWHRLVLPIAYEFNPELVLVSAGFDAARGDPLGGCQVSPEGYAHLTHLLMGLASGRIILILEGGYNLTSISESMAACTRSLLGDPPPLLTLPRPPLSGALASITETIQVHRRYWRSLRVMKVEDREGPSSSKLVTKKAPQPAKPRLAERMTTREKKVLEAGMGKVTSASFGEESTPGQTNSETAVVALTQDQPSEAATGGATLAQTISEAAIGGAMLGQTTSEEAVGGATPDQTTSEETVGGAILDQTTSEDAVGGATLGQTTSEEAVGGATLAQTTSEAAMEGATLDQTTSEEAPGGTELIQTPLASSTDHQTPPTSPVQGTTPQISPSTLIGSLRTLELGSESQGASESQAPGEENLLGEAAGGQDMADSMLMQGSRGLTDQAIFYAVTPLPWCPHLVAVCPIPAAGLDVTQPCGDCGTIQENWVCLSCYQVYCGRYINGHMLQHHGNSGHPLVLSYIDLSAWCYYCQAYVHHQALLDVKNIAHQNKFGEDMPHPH
ATTRIBUTE MEASURED: inhibition at 10 µM (%)

# SMILES STRING, OUTPUT UNIT, REPORTED RESULT
rows = [
    ("O=C1c2cc(-c3nnc(C(F)F)o3)ccc2CN1c1ccccc1-c1cccc(C(F)(F)F)c1", "%", 101),
    ("CC(C)(O)C(=O)N[C@@H]1CCCC[C@H]1N1Cc2ccc(-c3nnc(C(F)F)o3)cc2C1=O", "%", 101),
    ("O=C1c2cc(-c3nnc(C(F)F)o3)ccc2CN1[C@@H]1CCN(C(=O)C2(F)CC2)C[C@H]1c1ccc(F)cc1", "%", 100),
    ("CC(=O)N1CC[C@@H](N2Cc3ccc(-c4nnc(C(F)F)o4)cc3C2=O)[C@@H](c2ccccc2)C1", "%", 100),
    ("O=C1c2cc(-c3nnc(C(F)F)o3)ccc2CN1[C@@H]1CCCC[C@H]1NS(=O)(=O)C1CC1", "%", 100),
    ("O=C1c2cc(-c3nnc(C(F)F)o3)ccc2CN1c1ccccc1-c1cccc(F)n1", "%", 106),
    ("O=C1c2cc(-c3nnc(C(F)F)o3)cc(F)c2CN1C[C@@H]1CCCN1S(=O)(=O)C1CC1", "%", 102),
]
